List of Kd values.
Experimental System: T1, human PD-1 (soluble analyte in SPR) (human, UniProt Q15116 25-170, limits assumed)
T1 construct: also called CD279; PDCD1
T1 sequence (Q15116 25-170 limits assumed): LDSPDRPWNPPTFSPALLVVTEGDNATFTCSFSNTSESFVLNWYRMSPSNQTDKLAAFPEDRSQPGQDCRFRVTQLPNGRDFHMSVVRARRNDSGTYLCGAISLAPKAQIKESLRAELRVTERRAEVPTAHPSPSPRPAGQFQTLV
Method: SPR (ProteOn XPR36), mAb from crude supernatant captured on anti-human IgG Fc, PD-1 as analyte, 25 C
Provide only the numeric value, understood in µM.

As a guide, the following entries are already answered.
binder="PD1B847 (antibody, human IgG1, kappa, V domains shown, N55Q variant of PD1B750, IgG1; tested as crude supernatant in SPR; also called VH PD1H401; VL PD1L470) VH: QVQLVQSGAEVKKPGASVKVSCKASGYTFTTYWMHWVRQAPGQGLEWMGEINPNQGGINYAQKFQGRVTLTVDKSISTAYMELSRLRSDDTAVYYCTIDYYDYGGYWGQGTLVTVSS VL: DIQMTQSPSSLSASVGDRVTITCKASQNVGTNVAWYQQKPEKAPKSLIYSASYRYSGVPSRFSGSGSGTDFTLTISSLQPEDFATYYCQQYNIYPYTFGQGTKLEIKR" units=µM result=0.0246
binder="PD1B846 (antibody, human IgG1, kappa, V domains shown, N55D, G56A variant of PD1B750, IgG1; tested as crude supernatant in SPR; also called VH PD1H400; VL PD1L470) VH: QVQLVQSGAEVKKPGASVKVSCKASGYTFTTYWMHWVRQAPGQGLEWMGEINPNDAGINYAQKFQGRVTLTVDKSISTAYMELSRLRSDDTAVYYCTIDYYDYGGYWGQGTLVTVSS VL: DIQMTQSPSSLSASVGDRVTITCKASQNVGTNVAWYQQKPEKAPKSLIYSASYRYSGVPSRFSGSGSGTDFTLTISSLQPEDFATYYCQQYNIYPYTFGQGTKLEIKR" units=µM result=0.0216

Kd for PD1B850 (antibody, human IgG1, kappa, V domains shown, G56I variant of PD1B750, IgG1; tested as crude supernatant in SPR; also called VH PD1H404; VL PD1L470) VH: QVQLVQSGAEVKKPGASVKVSCKASGYTFTTYWMHWVRQAPGQGLEWMGEINPNNIGINYAQKFQGRVTLTVDKSISTAYMELSRLRSDDTAVYYCTIDYYDYGGYWGQGTLVTVSS VL: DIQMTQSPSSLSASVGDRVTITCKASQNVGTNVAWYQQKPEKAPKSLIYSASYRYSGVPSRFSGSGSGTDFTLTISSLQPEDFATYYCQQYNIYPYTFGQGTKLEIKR is 0.023
